Conditions: in cyclohexane, 298.15 K
experimental.readout: solubility (mole fraction)
Just the number, please.

Ask: solubility (mole fraction) lookup needed for CC[C@@H](C(N)=O)N1CCCC1=O , thanks.
Reply: 3.64e-05

---

Conditions: in toluene, 323.15 K
experimental.readout: solubility (mole fraction)
Just the number, please.

Ask: solubility (mole fraction) lookup needed for CC[C@@H](C(N)=O)N1CCCC1=O , thanks.
Reply: 0.0129

---

Conditions: in ethanol, 303.15 K
experimental.readout: solubility (mole fraction)
Just the number, please.

Ask: solubility (mole fraction) lookup needed for CC[C@@H](C(N)=O)N1CCCC1=O , thanks.
Reply: 0.0758

---

Settings: in cyclohexane, 318.15 K
experimental.readout: solubility (mole fraction)
Just the number, please.

Ask: solubility (mole fraction) lookup needed for CC[C@@H](C(N)=O)N1CCCC1=O , thanks.
Reply: 0.00012

---

Conditions: in ethanol, 318.15 K
experimental.readout: solubility (mole fraction)
Just the number, please.

Ask: solubility (mole fraction) lookup needed for CC[C@@H](C(N)=O)N1CCCC1=O , thanks.
Reply: 0.12

---

Conditions: in acetonitrile, 298.15 K
experimental.readout: solubility (mole fraction)

Ask: solubility (mole fraction) lookup needed for CC[C@@H](C(N)=O)N1CCCC1=O , thanks.
Reply: 0.0168

---

Conditions: in cyclohexane, 313.15 K
experimental.readout: solubility (mole fraction)
Just the number, please.

Ask: solubility (mole fraction) lookup needed for CC[C@@H](C(N)=O)N1CCCC1=O , thanks.
Reply: 8.95e-05

---

Conditions: in n-propanol, 303.15 K
experimental.readout: solubility (mole fraction)
Just the number, please.

Ask: solubility (mole fraction) lookup needed for CC[C@@H](C(N)=O)N1CCCC1=O , thanks.
Reply: 0.0362

---

Conditions: in methanol, 323.15 K
experimental.readout: solubility (mole fraction)

Ask: solubility (mole fraction) lookup needed for CC[C@@H](C(N)=O)N1CCCC1=O , thanks.
Reply: 0.27

---

Details: in 1,4-dioxane, 293.15 K
experimental.readout: solubility (mole fraction)
Just the number, please.

Ask: solubility (mole fraction) lookup needed for CC[C@@H](C(N)=O)N1CCCC1=O , thanks.
Reply: 0.00902

---

Conditions: in 1,4-dioxane, 318.15 K
experimental.readout: solubility (mole fraction)
Just the number, please.

Ask: solubility (mole fraction) lookup needed for CC[C@@H](C(N)=O)N1CCCC1=O , thanks.
Reply: 0.0263

---

Conditions: in ethyl acetate, 298.15 K
experimental.readout: solubility (mole fraction)
Just the number, please.

Ask: solubility (mole fraction) lookup needed for CC[C@@H](C(N)=O)N1CCCC1=O , thanks.
Reply: 0.00847

---

Settings: in acetonitrile, 303.15 K
experimental.readout: solubility (mole fraction)
Just the number, please.

Ask: solubility (mole fraction) lookup needed for CC[C@@H](C(N)=O)N1CCCC1=O , thanks.
Reply: 0.0203

---

Conditions: in acetonitrile, 308.15 K
experimental.readout: solubility (mole fraction)
Just the number, please.

Ask: solubility (mole fraction) lookup needed for CC[C@@H](C(N)=O)N1CCCC1=O , thanks.
Reply: 0.0245

---

Conditions: in 1,4-dioxane, 313.15 K
experimental.readout: solubility (mole fraction)
Just the number, please.

Ask: solubility (mole fraction) lookup needed for CC[C@@H](C(N)=O)N1CCCC1=O , thanks.
Reply: 0.0214
